- Test Name: protein stability index of a GFP-peptide fusion (GPS, HEK-293T) (PSI 1-6); higher = more stable;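 also: 24-mer peptide tiles fused after GFP, lentivirally expressed, FACS-sorted into six equal bins by GFP/DsRed ratio, decoded by Illumina sequencing, PSI is the read-weighted mean bin number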
- Settings: treatment: MLN4924 1 uM, 8 h; c terminus: a fixed tail appended
# label = 1.0 if protein stability index >= 3 else 0.0

Here's what some known entries look like.
Can IQRIDENVLGAQLDVEAAHSEILK [STX5] be said to have protein stability index at or above 3?
1.0

Textbook exercise: given the entry CEMEQQSQEYQILLDVKTRLEQEI [KRT16] , state whether its protein stability index is greater than or equal to 3.
1.0

Identify whether the reported protein stability index of the following sequence is 3 or greater: HEDHMVNLRYGFTKEVMNKYKVHG [PPEF2]
1.0

Does protein stability index meet or surpass 3 for ALDSADLPPPSALKKGSKEKQADF [NFE2L1] ?
1.0

---
Does protein stability index meet or surpass 3 for LGNVAEVKELRPQLMTSQFISVFS [ZER1] ?
0.0

Is protein stability index at least 3? Consider CSKQSGSFRKFRYGYNNVVTIPAG [ADAMTS4]
0.0

* * *

- Test Name: protein stability index of a GFP-peptide fusion (GPS, HEK-293T) (PSI 1-6); higher = more stable
- Settings: treatment: MLN4924 1 uM, 8 h; c terminus: a fixed tail appended
Everything with protein stability index lower than 3 is Not satisfied; everything else, including exactly 3, is Satisfied.

Check out these entries, answers already filled in.
Reported protein stability index reaches at least 3 for KVVQSLLNHGASVNNTTLTNSTPL [FEM1C] ?
Not satisfied

# check: protein stability index of HEPLSKERVEAFSDGVYAIVATLL [TMEM175] is greater than or equal to 3
Not satisfied

Tell me whether protein stability index is at least 3 here: ISHEEQKSVRLARELESREAELRR [CHCHD6]
Satisfied

Now, please, on to the next sequence.
Hi, just wondering whether KMGGKDFSFRYQQELEEEIKELYE [ATL3] shows protein stability index of 3 or higher.
Not satisfied

* * *

- Test Name: protein stability index of a GFP-peptide fusion (GPS, HEK-293T) (PSI 1-6); higher = more stable
- Settings: treatment: MLN4924 1 uM, 8 h; c terminus: a fixed tail appended
Property Measured: protein stability index
Please give only the number in your answer, with no unit.

Solved entries (count: 2):
Supply recorded protein stability index for PGGGDICMYRHALPPGFVLKKDKK [ZC3H15] here.
4.04

Give me measured protein stability index, please, for this sequence: REDILSCYDVYSPDKEEQLPFGPF [PKD2L1]
3.93

Here is the next item to consider.
Provide measured protein stability index value, entry: PSHHPTDPVELRRLNFQTPGMASH [PTPRD]
3.94

* * *

- Test Name: protein stability index of a GFP-peptide fusion (GPS, HEK-293T) (PSI 1-6); higher = more stable
- Settings: treatment: MLN4924 1 uM, 8 h; c terminus: a fixed tail appended
Quick reference for protein stability index among some sequences
Give the figure only, with no unit attached.

Example results:
Retrieve protein stability index measured for EEDGGADEHEHPLTSELDPEKEQE [MIA2] and print it.
5.5

Let me know recorded protein stability index for EGVAGKSGLEKEVQRLTSRAARDY [FCHSD1] , thanks.
4.84

Look up and state reported protein stability index for QVEKNKYDASAIDFSRCDMDGATL [ELF3]
4.58

Answer with the recorded protein stability index for the sequence listed here: YPVGRFPSLHVVKVLLDCGADPDS [FEM1A]
2.38

Could you please provide reported protein stability index for KAKHFKCHICHKKLYTGPGLAIHC [ZNF207] ? Thanks!
2.62

---
Output protein stability index of LRTLDKKTFYKTADISQMLVCTAD [TAF7L]
2.65
